Molecular target: ryanodine receptor, isoform 1 (RyR1) (Oncorhynchus mykiss, UniProt A0A8C7UX14)
Sequence (A0A8C7UX14 1-5031): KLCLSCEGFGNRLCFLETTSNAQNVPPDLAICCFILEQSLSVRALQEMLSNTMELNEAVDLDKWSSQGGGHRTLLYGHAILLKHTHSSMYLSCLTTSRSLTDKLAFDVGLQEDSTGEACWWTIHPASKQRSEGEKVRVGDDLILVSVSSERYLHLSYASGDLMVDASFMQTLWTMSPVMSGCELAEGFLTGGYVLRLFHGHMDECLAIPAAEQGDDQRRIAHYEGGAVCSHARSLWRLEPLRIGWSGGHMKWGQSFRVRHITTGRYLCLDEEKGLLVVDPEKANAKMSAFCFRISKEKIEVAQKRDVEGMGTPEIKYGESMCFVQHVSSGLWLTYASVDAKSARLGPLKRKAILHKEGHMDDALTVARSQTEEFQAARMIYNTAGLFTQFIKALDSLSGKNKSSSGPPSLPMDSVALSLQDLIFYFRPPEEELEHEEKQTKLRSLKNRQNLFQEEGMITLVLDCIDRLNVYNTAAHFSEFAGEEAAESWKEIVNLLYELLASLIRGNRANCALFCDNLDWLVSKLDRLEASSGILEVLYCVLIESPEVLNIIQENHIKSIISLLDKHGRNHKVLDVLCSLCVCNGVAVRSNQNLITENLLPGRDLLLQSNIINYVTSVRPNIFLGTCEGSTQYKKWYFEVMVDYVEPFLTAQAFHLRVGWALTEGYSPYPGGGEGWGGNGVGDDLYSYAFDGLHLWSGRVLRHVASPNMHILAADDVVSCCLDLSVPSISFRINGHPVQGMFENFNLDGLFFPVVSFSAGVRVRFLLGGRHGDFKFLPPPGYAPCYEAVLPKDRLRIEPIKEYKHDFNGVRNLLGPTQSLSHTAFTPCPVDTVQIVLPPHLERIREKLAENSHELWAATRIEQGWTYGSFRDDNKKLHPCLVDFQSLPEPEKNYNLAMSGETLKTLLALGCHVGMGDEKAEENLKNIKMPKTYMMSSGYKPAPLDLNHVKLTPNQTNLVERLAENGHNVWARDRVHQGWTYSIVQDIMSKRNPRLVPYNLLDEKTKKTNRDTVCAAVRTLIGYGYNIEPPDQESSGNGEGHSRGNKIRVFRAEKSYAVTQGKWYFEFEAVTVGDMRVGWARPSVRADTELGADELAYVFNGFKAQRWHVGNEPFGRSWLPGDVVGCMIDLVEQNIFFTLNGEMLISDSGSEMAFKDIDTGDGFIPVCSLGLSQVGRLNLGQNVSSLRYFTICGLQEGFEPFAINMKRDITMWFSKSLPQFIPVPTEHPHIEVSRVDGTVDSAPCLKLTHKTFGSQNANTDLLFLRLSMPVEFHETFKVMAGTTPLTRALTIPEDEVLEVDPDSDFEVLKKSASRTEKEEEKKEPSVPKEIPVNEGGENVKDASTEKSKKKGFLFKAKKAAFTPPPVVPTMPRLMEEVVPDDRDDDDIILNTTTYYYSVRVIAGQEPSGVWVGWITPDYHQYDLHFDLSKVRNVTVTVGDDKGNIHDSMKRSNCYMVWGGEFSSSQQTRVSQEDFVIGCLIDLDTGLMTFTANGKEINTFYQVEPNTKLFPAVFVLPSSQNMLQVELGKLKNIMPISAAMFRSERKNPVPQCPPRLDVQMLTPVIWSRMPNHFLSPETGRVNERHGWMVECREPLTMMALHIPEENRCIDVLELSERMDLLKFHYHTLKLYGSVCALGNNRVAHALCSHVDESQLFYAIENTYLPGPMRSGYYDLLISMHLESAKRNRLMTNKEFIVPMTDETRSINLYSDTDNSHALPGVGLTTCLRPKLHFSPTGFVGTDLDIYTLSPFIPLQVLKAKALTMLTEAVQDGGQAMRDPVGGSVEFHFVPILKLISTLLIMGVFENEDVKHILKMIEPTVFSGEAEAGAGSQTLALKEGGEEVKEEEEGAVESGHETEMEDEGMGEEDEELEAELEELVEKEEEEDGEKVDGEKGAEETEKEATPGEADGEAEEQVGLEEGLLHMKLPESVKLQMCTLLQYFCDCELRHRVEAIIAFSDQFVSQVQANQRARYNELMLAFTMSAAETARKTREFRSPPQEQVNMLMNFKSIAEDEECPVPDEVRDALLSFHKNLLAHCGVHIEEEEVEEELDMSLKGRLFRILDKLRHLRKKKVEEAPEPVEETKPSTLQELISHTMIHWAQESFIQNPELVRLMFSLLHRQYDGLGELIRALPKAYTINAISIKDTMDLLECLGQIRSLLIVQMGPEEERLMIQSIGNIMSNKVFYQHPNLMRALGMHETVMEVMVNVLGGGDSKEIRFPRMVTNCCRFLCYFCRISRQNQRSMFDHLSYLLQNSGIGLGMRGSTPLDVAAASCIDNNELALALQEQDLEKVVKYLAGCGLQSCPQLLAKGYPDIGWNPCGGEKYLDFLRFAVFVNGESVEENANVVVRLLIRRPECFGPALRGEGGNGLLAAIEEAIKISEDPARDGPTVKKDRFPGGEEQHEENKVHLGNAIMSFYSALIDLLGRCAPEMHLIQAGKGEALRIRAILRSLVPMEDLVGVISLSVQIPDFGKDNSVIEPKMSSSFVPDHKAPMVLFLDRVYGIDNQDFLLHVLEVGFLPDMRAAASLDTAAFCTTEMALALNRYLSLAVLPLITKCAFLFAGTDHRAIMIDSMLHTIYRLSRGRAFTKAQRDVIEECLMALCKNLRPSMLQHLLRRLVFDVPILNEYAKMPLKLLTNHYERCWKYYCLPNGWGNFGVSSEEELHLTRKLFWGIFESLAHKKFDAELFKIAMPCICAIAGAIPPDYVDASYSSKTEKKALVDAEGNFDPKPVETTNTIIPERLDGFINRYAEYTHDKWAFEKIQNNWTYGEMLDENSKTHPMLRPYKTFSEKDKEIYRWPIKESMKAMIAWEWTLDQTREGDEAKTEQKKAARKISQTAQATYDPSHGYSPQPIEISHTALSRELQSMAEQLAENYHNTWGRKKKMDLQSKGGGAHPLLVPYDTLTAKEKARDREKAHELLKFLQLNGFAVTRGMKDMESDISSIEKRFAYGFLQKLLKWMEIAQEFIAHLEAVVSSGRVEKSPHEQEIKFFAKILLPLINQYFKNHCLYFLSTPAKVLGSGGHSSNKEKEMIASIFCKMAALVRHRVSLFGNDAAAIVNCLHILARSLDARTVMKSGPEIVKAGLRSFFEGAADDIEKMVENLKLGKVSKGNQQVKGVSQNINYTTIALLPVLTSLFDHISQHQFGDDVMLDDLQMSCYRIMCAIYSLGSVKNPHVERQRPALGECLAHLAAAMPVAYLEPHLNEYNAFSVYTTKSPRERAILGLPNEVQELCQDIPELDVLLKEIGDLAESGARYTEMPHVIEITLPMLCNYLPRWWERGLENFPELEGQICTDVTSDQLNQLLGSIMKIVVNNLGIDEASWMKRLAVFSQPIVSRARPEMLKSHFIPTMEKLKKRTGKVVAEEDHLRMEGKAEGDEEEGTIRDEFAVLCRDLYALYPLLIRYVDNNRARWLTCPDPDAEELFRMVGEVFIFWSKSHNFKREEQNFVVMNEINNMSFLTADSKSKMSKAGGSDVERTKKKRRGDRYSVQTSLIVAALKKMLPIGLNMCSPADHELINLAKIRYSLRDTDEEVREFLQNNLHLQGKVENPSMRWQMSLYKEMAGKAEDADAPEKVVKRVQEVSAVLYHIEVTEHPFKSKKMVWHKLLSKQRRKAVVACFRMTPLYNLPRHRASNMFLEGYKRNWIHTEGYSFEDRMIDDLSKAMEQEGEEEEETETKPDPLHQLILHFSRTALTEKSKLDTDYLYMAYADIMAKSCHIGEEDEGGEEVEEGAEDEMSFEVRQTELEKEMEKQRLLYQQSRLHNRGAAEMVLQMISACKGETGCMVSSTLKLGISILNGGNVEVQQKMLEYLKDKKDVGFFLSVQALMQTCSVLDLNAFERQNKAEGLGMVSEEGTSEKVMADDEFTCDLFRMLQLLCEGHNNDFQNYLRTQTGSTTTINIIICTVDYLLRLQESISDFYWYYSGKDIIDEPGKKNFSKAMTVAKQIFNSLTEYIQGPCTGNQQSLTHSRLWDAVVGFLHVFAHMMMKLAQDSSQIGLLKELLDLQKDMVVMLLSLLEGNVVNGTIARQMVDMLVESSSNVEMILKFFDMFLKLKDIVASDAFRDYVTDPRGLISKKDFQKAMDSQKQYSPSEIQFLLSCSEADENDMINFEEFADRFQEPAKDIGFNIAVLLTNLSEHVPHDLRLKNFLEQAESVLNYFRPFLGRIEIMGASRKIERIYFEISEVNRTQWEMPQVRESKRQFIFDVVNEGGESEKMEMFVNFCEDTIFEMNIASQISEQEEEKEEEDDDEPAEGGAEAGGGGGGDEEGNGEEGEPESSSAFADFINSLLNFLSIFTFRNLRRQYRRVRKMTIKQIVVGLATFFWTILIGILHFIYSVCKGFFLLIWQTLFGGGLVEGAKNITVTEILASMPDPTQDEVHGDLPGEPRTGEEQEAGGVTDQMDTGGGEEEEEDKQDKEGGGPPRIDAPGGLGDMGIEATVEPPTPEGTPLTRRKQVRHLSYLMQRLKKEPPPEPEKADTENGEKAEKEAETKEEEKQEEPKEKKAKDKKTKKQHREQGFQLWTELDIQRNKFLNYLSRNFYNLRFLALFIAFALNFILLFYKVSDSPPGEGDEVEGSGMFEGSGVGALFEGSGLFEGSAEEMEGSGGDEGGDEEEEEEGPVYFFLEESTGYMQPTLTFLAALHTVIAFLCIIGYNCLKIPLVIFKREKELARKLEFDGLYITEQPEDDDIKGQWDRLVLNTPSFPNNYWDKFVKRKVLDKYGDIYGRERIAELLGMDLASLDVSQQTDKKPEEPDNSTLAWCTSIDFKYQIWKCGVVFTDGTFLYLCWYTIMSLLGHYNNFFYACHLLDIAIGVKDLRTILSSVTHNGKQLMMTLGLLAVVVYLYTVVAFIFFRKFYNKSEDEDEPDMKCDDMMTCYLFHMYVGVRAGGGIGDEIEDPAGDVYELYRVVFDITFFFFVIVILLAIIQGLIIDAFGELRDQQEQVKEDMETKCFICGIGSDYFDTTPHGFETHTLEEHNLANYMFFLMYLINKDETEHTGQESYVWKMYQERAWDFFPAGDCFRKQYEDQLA
Assay type: binding, rainbow trout (Oncorhynchus mykiss)
Details: maximal level of [3H]Ry binding at saturation; Mean ± SEM; (−) inactive
Each record is given Met if its reported Bmax is strictly below 0.5 pmol/mg. Records at or above 0.5 pmol/mg are given Not met.

[[record]]
molecule = "Clc1ccc(Cl)c(-c2c(Cl)ccc(Cl)c2Cl)c1 [PCB 95]"
tested_on = "ryanodine receptor, isoform 1 (RyR1) (Oncorhynchus mykiss, UniProt A0A8C7UX14)"
label_value = "Not met"

[[record]]
molecule = "Clc1cccc(-c2cccc(Cl)c2Cl)c1 [PCB 20]"
tested_on = "ryanodine receptor, isoform 1 (RyR1) (Oncorhynchus mykiss, UniProt A0A8C7UX14)"
label_value = "Met"

[[record]]
molecule = "Clc1cc(Cl)c(-c2cc(Cl)c(Cl)cc2Cl)cc1Cl [PCB 153]"
tested_on = "ryanodine receptor, isoform 1 (RyR1) (Oncorhynchus mykiss, UniProt A0A8C7UX14)"
label_value = "Not met"

[[record]]
molecule = "Clc1ccc(Cl)c(-c2cc(Cl)c(Cl)cc2Cl)c1 [PCB 101]"
tested_on = "ryanodine receptor, isoform 1 (RyR1) (Oncorhynchus mykiss, UniProt A0A8C7UX14)"
label_value = "Not met"

[[record]]
molecule = "Clc1ccc(-c2c(Cl)ccc(Cl)c2Cl)c(Cl)c1Cl [PCB 132]"
tested_on = "ryanodine receptor, isoform 1 (RyR1) (Oncorhynchus mykiss, UniProt A0A8C7UX14)"
label_value = "Met"

[[record]]
molecule = "Clc1ccc(-c2ccc(Cl)c(Cl)c2)c(Cl)c1 [PCB 66]"
tested_on = "ryanodine receptor, isoform 1 (RyR1) (Oncorhynchus mykiss, UniProt A0A8C7UX14)"
label_value = "Met"

[[record]]
molecule = "Clc1cc(Cl)c(-c2c(Cl)c(Cl)cc(Cl)c2Cl)cc1Cl [PCB 187]"
tested_on = "ryanodine receptor, isoform 1 (RyR1) (Oncorhynchus mykiss, UniProt A0A8C7UX14)"
label_value = "Met"

[[record]]
molecule = "Clc1cc(Cl)c(-c2cc(Cl)c(Cl)c(Cl)c2Cl)cc1Cl [PCB 180]"
tested_on = "ryanodine receptor, isoform 1 (RyR1) (Oncorhynchus mykiss, UniProt A0A8C7UX14)"
label_value = "Met"

[[record]]
molecule = "Clc1cc(Cl)c(-c2c(Cl)ccc(Cl)c2Cl)cc1Cl [PCB 149]"
tested_on = "ryanodine receptor, isoform 1 (RyR1) (Oncorhynchus mykiss, UniProt A0A8C7UX14)"
label_value = "Not met"

[[record]]
molecule = "Clc1ccc(Cl)c(-c2cc(Cl)ccc2Cl)c1 [PCB 52]"
tested_on = "ryanodine receptor, isoform 1 (RyR1) (Oncorhynchus mykiss, UniProt A0A8C7UX14)"
label_value = "Not met"

[[record]]
molecule = "Clc1ccc(-c2cc(Cl)c(Cl)cc2Cl)c(Cl)c1 [PCB 99]"
tested_on = "ryanodine receptor, isoform 1 (RyR1) (Oncorhynchus mykiss, UniProt A0A8C7UX14)"
label_value = "Not met"

[[record]]
molecule = "Clc1ccc(Cl)c(-c2c(Cl)ccc(Cl)c2Cl)c1Cl [PCB 136]"
tested_on = "ryanodine receptor, isoform 1 (RyR1) (Oncorhynchus mykiss, UniProt A0A8C7UX14)"
label_value = "Not met"

[[record]]
molecule = "Clc1ccc(-c2c(Cl)ccc(Cl)c2Cl)cc1Cl [PCB 110]"
tested_on = "ryanodine receptor, isoform 1 (RyR1) (Oncorhynchus mykiss, UniProt A0A8C7UX14)"
label_value = "Met"

[[record]]
molecule = "Clc1cc(Cl)c(-c2c(Cl)cc(Cl)c(Cl)c2Cl)cc1Cl [PCB 183]"
tested_on = "ryanodine receptor, isoform 1 (RyR1) (Oncorhynchus mykiss, UniProt A0A8C7UX14)"
label_value = "Met"

[[record]]
molecule = "Clc1cc(-c2cc(Cl)c(Cl)c(Cl)c2Cl)c(Cl)c(Cl)c1Cl [PCB 194]"
tested_on = "ryanodine receptor, isoform 1 (RyR1) (Oncorhynchus mykiss, UniProt A0A8C7UX14)"
label_value = "Met"

[[record]]
molecule = "Clc1ccc(Cl)c(-c2c(Cl)c(Cl)cc(Cl)c2Cl)c1 [PCB 151]"
tested_on = "ryanodine receptor, isoform 1 (RyR1) (Oncorhynchus mykiss, UniProt A0A8C7UX14)"
label_value = "Not met"


Data origin, for the record: paper PMC3813431
